# credit: the supplement of paper PMC5844555

System: FBXW7
Method Summary: 3' UTR reporter interaction score (median-centred robust z-score of log2 firefly/Renilla activity); higher = less repression of the 3' UTR reporter
Setup Conditions: HEK293T; 48 h
So basically: 3' UTR reporter interaction score at 0.3 or higher? That is Met. Lower than 0.3? That is Not met.

- Sequence Record: "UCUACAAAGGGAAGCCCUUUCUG"
  Label Value: "Not met"
- Sequence Record: "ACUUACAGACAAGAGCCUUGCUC"
  Label Value: "Met"
- Sequence Record: "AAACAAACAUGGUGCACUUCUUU"
  Label Value: "Not met"
- Sequence Record: "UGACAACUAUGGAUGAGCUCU"
  Label Value: "Not met"
- Sequence Record: "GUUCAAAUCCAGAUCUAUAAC"
  Label Value: "Met"
- Sequence Record: "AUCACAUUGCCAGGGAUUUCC"
  Label Value: "Not met"
- Sequence Record: "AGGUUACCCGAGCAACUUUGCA"
  Label Value: "Not met"
- Sequence Record: "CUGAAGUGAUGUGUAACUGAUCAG"
  Label Value: "Not met"
- Sequence Record: "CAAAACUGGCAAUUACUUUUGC"
  Label Value: "Not met"
- Sequence Record: "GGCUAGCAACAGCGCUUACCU"
  Label Value: "Not met"
- Sequence Record: "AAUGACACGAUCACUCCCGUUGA"
  Label Value: "Not met"
- Sequence Record: "AGGCACGGUGUCAGCAGGC"
  Label Value: "Met"
- Sequence Record: "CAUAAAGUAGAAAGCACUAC"
  Label Value: "Not met"
- Sequence Record: "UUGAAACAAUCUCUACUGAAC"
  Label Value: "Met"
- Sequence Record: "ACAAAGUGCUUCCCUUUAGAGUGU"
  Label Value: "Not met"
- Sequence Record: "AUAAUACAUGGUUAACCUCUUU"
  Label Value: "Not met"
- Sequence Record: "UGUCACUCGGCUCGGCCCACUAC"
  Label Value: "Not met"
- Sequence Record: "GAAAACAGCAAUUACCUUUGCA"
  Label Value: "Not met"
- Sequence Record: "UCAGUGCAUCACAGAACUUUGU"
  Label Value: "Not met"
- Sequence Record: "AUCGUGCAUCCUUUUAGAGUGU"
  Label Value: "Not met"
- Sequence Record: "UCUACAGUGCACGUGUCU"
  Label Value: "Not met"
- Sequence Record: "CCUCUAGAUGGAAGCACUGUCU"
  Label Value: "Not met"
- Sequence Record: "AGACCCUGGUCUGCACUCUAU"
  Label Value: "Met"
- Sequence Record: "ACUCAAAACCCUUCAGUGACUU"
  Label Value: "Met"
- Sequence Record: "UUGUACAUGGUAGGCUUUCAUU"
  Label Value: "Not met"
- Sequence Record: "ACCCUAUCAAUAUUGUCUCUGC"
  Label Value: "Met"
- Sequence Record: "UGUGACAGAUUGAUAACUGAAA"
  Label Value: "Not met"
- Sequence Record: "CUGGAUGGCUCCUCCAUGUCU"
  Label Value: "Met"
- Sequence Record: "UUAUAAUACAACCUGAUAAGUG"
  Label Value: "Not met"
- Sequence Record: "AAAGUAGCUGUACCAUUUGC"
  Label Value: "Met"
- Sequence Record: "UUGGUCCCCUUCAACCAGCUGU"
  Label Value: "Met"
- Sequence Record: "UAUUGCACAUUACUAAGUUGC"
  Label Value: "Not met"
